Field: Transcytosis (Fold Incr.). Provide a value for each of the binders that follow.
tested.on: human pIgR, full-length, on cells (human, UniProt P01833 19-764)
Sequence (P01833 19-764): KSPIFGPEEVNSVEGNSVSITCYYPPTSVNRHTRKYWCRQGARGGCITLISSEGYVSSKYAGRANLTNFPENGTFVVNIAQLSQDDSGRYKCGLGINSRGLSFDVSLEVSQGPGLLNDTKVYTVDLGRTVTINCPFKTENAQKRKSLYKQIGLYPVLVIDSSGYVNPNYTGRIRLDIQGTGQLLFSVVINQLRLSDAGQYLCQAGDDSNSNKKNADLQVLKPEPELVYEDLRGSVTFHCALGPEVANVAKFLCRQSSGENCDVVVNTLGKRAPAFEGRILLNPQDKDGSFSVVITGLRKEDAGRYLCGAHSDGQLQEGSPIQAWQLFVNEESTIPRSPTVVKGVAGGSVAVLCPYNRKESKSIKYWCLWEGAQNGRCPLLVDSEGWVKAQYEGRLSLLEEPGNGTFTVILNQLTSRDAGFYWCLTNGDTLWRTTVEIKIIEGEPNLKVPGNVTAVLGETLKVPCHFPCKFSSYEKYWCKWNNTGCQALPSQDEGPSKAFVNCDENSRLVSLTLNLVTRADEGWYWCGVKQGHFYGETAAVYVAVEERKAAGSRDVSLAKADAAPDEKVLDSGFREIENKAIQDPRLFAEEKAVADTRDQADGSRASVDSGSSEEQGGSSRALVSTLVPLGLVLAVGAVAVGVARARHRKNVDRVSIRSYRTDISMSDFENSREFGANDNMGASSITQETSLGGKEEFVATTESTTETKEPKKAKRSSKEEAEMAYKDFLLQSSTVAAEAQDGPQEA
experiment: cell-based or functional assay
One number for each entry, in fold.

Guide cases for Transcytosis (Fold Incr.), answers given:
| binder | endpoint | scale.unit | result |
| --- | --- | --- | --- |
| VHH10-linker-mono-Fc protein (Fc fusion, made in CHO cells; also called VHH10-mono-Fc; hpIgR_225) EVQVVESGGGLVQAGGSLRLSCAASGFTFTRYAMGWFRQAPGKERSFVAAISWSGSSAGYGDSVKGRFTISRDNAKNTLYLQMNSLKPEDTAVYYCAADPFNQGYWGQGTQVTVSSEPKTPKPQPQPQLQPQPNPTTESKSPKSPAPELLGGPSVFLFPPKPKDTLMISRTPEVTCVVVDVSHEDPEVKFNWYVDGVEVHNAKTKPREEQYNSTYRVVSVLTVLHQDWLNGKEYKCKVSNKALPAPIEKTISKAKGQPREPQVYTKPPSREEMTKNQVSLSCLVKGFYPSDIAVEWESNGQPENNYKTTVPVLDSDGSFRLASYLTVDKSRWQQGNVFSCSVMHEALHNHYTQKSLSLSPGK | Transcytosis (Fold Incr.) | fold | 5 |
| VHH9-linker-mono-Fc protein (Fc fusion, made in CHO cells; also called VHH9-mono-Fc; hpIgR_221) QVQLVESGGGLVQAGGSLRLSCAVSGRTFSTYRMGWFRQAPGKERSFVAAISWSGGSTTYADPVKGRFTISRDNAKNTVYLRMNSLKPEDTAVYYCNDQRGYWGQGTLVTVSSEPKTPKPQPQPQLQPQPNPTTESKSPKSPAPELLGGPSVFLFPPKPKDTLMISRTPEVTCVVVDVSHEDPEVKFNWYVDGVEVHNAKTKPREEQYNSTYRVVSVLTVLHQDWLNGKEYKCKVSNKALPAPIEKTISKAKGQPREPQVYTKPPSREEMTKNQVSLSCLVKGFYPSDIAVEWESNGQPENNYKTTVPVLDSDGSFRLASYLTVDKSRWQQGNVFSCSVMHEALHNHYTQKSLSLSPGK | Transcytosis (Fold Incr.) | fold | 22.4 |

Consider the following items and state reported Transcytosis (Fold Incr.) for each.
1. VHH2-linker-mono-Fc protein (Fc fusion, also called VHH2-mono-Fc; mpIgR_338) EVQVVESGGGLVQAGGSLKLACAAPGLTFSSYRMGWFRQAPGQEREFVAAIDWNGRGTYYRYYADSVKGRSTISRDNAKNTVYLQMNSLKPEDTAVYYCAATTVLTDPRVLNEYATWGQGTQVTVSSEPKTPKPQPQPQLQPQPNPTTESKSPKSPAPELLGGPSVFLFPPKPKDTLMISRTPEVTCVVVDVSHEDPEVKFNWYVDGVEVHNAKTKPREEQYNSTYRVVSVLTVLHQDWLNGKEYKCKVSNKALPAPIEKTISKAKGQPREPQVYTKPPSREEMTKNQVSLSCLVKGFYPSDIAVEWESNGQPENNYKTTVPVLDSDGSFRLASYLTVDKSRWQQGNVFSCSVMHEALHNHYTQKSLSLSPGK
2. VHH11-linker-mono-Fc protein (Fc fusion, made in CHO cells; also called VHH11-mono-Fc; hpIgR_250) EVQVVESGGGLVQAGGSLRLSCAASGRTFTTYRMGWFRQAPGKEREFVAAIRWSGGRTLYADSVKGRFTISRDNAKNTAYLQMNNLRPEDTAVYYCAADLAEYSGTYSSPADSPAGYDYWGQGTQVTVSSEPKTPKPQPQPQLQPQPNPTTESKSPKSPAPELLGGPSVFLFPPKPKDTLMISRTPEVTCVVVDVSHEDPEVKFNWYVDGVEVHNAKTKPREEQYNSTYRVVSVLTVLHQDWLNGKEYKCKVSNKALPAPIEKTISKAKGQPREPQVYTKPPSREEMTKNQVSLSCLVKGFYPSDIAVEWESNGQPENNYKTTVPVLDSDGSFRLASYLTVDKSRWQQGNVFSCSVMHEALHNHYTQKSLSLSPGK
3. VHH3-linker-mono-Fc protein (Fc fusion, made in CHO cells; also called VHH3-mono-Fc; hpIgR_021) QLQLVESGGGLVQPGGSLRLSCAASGSIFSINVMGWYRQAPGKQRELVARINGGGITHYAESVKGRFTISRDNAKNTVYLQMNSLKPEDTAAYYCKADVFGSSGYVETYWGQGTQVTVSSEPKTPKPQPQPQLQPQPNPTTESKSPKSPAPELLGGPSVFLFPPKPKDTLMISRTPEVTCVVVDVSHEDPEVKFNWYVDGVEVHNAKTKPREEQYNSTYRVVSVLTVLHQDWLNGKEYKCKVSNKALPAPIEKTISKAKGQPREPQVYTKPPSREEMTKNQVSLSCLVKGFYPSDIAVEWESNGQPENNYKTTVPVLDSDGSFRLASYLTVDKSRWQQGNVFSCSVMHEALHNHYTQKSLSLSPGK
4. VHH6-linker-mono-Fc protein (Fc fusion, made in CHO cells; also called VHH6-mono-Fc; hpIgR_181) EVQLVESGGGLVQAGGSLRLSCAVSGSSVSSDAMGWYRQAPGNQRAWVAFISGGGTTTYADSVKGRFTISRDNTKNTVYLHMNSLKPEDTAVYYCNHPLTSRWGQGTQVTVSSEPKTPKPQPQPQLQPQPNPTTESKSPKSPAPELLGGPSVFLFPPKPKDTLMISRTPEVTCVVVDVSHEDPEVKFNWYVDGVEVHNAKTKPREEQYNSTYRVVSVLTVLHQDWLNGKEYKCKVSNKALPAPIEKTISKAKGQPREPQVYTKPPSREEMTKNQVSLSCLVKGFYPSDIAVEWESNGQPENNYKTTVPVLDSDGSFRLASYLTVDKSRWQQGNVFSCSVMHEALHNHYTQKSLSLSPGK
5. VHH7-linker-mono-Fc protein (Fc fusion, made in CHO cells; also called VHH7-mono-Fc; hpIgR_198) EVQVVESGGGLVQAGGSLRLACVASRSIGSINVMGWYRQAPGKQRDLVARITGGGSTHYAESVKGRFTISRDNAKNTVYLQMNSLEPEDTAVYYCASMVNPIITAWGTIGVREIPDYDYWGQGTQVTVSSEPKTPKPQPQPQLQPQPNPTTESKSPKSPAPELLGGPSVFLFPPKPKDTLMISRTPEVTCVVVDVSHEDPEVKFNWYVDGVEVHNAKTKPREEQYNSTYRVVSVLTVLHQDWLNGKEYKCKVSNKALPAPIEKTISKAKGQPREPQVYTKPPSREEMTKNQVSLSCLVKGFYPSDIAVEWESNGQPENNYKTTVPVLDSDGSFRLASYLTVDKSRWQQGNVFSCSVMHEALHNHYTQKSLSLSPGK
6. VHH4-linker-mono-Fc protein (Fc fusion, also called VHH4-mono-Fc; hpIgR_073) EVQVVESGGGLVQAGGSLRLSCAVSGTSVSSNAMGWYRQAPGKQREWVGFIDRIATTTIATSVKGRFAITRDNAKNTVYLQMSGLKPEDTAVYYCNHPLTARWGQGTQVTVSSEPKTPKPQPQPQLQPQPNPTTESKSPKSPAPELLGGPSVFLFPPKPKDTLMISRTPEVTCVVVDVSHEDPEVKFNWYVDGVEVHNAKTKPREEQYNSTYRVVSVLTVLHQDWLNGKEYKCKVSNKALPAPIEKTISKAKGQPREPQVYTKPPSREEMTKNQVSLSCLVKGFYPSDIAVEWESNGQPENNYKTTVPVLDSDGSFRLASYLTVDKSRWQQGNVFSCSVMHEALHNHYTQKSLSLSPGK

Reply:
[34.2, 32, 2.6, 30.7, 1.3, 12.6]
